Target: Ubiquitin-activating enzyme e1, putative (Leishmania donovani (strain BPK282A1)) (UniProt E9BSI1)
Sequence (E9BSI1 as listed by the source): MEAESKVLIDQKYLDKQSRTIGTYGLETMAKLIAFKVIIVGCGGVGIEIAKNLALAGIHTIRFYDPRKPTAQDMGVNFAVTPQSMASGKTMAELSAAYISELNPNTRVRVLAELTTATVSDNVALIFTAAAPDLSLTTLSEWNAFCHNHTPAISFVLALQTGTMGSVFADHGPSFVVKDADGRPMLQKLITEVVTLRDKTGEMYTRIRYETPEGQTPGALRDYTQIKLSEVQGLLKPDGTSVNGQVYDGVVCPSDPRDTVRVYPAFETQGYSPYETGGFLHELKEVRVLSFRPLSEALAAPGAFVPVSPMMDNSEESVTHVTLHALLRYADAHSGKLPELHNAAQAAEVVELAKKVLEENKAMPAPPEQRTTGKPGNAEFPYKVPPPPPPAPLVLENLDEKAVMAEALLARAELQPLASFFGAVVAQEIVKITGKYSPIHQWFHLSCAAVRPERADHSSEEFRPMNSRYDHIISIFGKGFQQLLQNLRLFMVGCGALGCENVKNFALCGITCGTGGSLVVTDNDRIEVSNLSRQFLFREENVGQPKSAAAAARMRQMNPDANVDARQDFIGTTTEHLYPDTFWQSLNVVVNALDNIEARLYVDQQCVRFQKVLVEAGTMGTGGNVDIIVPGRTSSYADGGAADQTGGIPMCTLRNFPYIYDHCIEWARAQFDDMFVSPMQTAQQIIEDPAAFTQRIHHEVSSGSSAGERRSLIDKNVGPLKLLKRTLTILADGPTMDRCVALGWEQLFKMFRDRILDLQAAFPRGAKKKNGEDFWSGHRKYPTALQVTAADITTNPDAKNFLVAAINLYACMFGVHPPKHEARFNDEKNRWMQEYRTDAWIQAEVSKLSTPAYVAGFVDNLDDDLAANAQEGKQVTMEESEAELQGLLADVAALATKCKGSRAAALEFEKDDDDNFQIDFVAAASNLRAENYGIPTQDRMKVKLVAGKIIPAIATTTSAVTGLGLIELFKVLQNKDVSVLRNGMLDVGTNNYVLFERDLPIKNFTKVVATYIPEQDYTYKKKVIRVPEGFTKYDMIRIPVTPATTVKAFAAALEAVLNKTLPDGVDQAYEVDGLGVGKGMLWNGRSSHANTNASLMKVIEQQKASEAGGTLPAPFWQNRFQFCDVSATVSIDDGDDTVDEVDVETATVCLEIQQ
Assay: Leishmania donovani Ubiquitin Activating Enzyme (LdE1)
Assay type: functional
Design: scale not given: direction of the effect not stated beside the values
Conditions: 30 µM
Entries with a potency or affinity are not part of this list.
recordedMetric: Percent Effect (%)
Numeric only. Scale: %

Below: 4 compounds and their reported Percent Effect.
c1ccc(Cn2cc(CNC3CCc4ncnn4C3)cn2)cc1 (stereo unspecified) | 6.33
CC(=O)N1CCN(C(=O)c2cnn(-c3ccccc3Cl)c2)CC1 | 21.6
CCOc1ccc(N2CCCN=C2NC(=O)c2cccc(Cl)c2)cc1 | 5.2
Cc1nn(C)c(C)c1C1CCCN1C(=O)CCNc1ncccn1 (stereo unspecified) | 18.4

Continue with the compound presented below.
// query Quick check: Percent Effect of c1ccc(CCN2CCOC(Cn3cccn3)C2)nc1 (stereo unspecified) ?
// result 5.2
